Data provenance is ChEMBL document CHEMBL1201862.

Test system: PC-3
ASSAY_INFO: NCI tumour cell line growth inhibition, 48 h
Active and inactive are the calls of the source. Rule as the data show it: active = GI50 up to about 1.1 µM and inactive = higher.
MEASURED_METRIC: GI50

MOLECULE: CC(C)(C)OC(=O)NCC(CNC(=O)OC(C)(C)C)C(N)=O
GI50: > 100 µM (inactive)

MOLECULE: CSCCC(NC(=O)OC(C)(C)C)C(=O)NCCNc1ccc(NCCNC(=O)C(CCSC)NC(=O)OC(C)(C)C)c2c1C(=O)c1ccccc1C2=O (stereo not given)
GI50: 5.31 µM (inactive)

MOLECULE: Cc1ccnc2nc3[nH]c4ccccc4c3cc12
GI50: > 100 µM (inactive)

So for Cc1ccc2c3c1[C@@H]1O[C@@H]1c1cccc(c1-3)[C@@H]1O[C@H]21 , the logged GI50 turned out to be 15 µM (inactive)

So for CC(C)C1CSC2N1C(=O)C2(OCc1ccccc1)C1CC1 (stereo not given) , the logged GI50 turned out to be 69 µM (inactive)
